Test system: A673/TR/shEF
assay_procedure: cell viability (LOESS-normalised, relative to median of negative controls) (log2 ratio); higher = more viable cells (less compound effect), active = hit call of the paper (over 3 MAD below the median)
assay_conditions: 25 µM; library screen: screen1; EWS-FLI1 expression: low (doxycycline-induced shRNA knockdown); treatment time: 72 h
The whole screen tested about 3,200 compounds, of which about 300 (9.4%) showed activity. The sample holds actives, similar compounds and a random draw of the others, so the mix is not that of the screen.
// returns not fulfilled unless cell viability (log2) is strictly below 0.08, in which case fulfilled

compound	classification
c1ccc(C2CN3CCSC3=N2)cc1 (stereo not drawn)	fulfilled
Brc1ccc([C@H]2CN3CCSC3=N2)cc1	fulfilled
CC1CNCCN1S(=O)(=O)c1cccc2cnccc12 (stereo not drawn)	not fulfilled
O=c1c(O)c(-c2ccc(O)c(O)c2)oc2cc(O)cc(O)c12	fulfilled
NCCNS(=O)(=O)c1cccc2cnccc12	not fulfilled
O=C(O)c1cc(NCc2cc(O)ccc2O)ccc1O	fulfilled
CCCCCCCCCCCCC/C=C/[C@@H](O)[C@@H](N)CO	fulfilled
COC(=O)/C=C/c1cc(O)ccc1O	fulfilled
O=c1c(-c2ccc(O)cc2)coc2cc(O)ccc12	fulfilled
CC(C)n1cnc2c(NCc3ccccc3)nc(NCCO)nc21	fulfilled
CCCCCCCCCCCCCCCC(=O)O[C@H](CC(=O)[O-])C[N+](C)(C)C	fulfilled
O=C(O)c1cc(N(Cc2ccccc2O)Cc2cc(O)ccc2O)ccc1O	not fulfilled
COc1cc2ncc(-c3ccccc3)nc2cc1OC	not fulfilled
O=S(=O)(c1cccc2c(Cl)cccc12)N1CCCNCC1	fulfilled
C[S+]([O-])c1ccc(-c2nc(-c3ccc(F)cc3)c(-c3ccncc3)[nH]2)cc1 (stereo not drawn)	not fulfilled
O=S(=O)(NCCNC/C=C/c1ccc(Br)cc1)c1cccc2cnccc12	not fulfilled
COc1ccc(S(=O)(=O)N(CCO)c2ccccc2CN(C)C/C=C/c2ccc(Cl)cc2)cc1	fulfilled
O=C1c2ccccc2-c2n[nH]c3cccc1c23	not fulfilled
N#CC(C#N)=C(N)/C(C#N)=C/c1ccc2[nH]ccc2c1	fulfilled
CCCCCCCCCCCCCCCC(=O)C1=C(O)[C@@H](CO)OC1=O	fulfilled
O=P(O)(O)C(O)c1ccc2ccccc2c1 (stereo not drawn)	fulfilled
